test system: SR leukemia; assay: NCI tumour cell line growth inhibition, 48 h
Measured Quantity: TGI

These solved cases illustrate the format of a correct answer.
| Compound | Test Value |
| --- | --- |
| NC(=O)NC(=O)c1ccc(NC(=O)CBr)cc1 | 1.01 µM |
| CN1CCN(Cc2ccc(NC(=O)c3cncc(C#Cc4c(N)ncc5cc(F)ccc45)c3)cc2C(F)(F)F)CC1 | 50 µM |
| COc1cc([C@H]2Oc3cc(O)c4c(=O)cc(-c5ccc(O)cc5)oc4c3O[C@@H]2CO)ccc1O | 47.8 µM |

Field: TGI. Fill in for each record below.
1. CSC(=N)N1N=C2c3ccccc3CC[C@@H]2[C@@H]1c1ccccc1
2. COC(=O)[C@]12CSC[C@H]1C[C@H](c1ccc(N(C)C)cc1)N2

30.9 µM
> 100 µM

Field: TGI. Fill in for each record below.
1. C/C(=C\c1ccn(-c2ccc(N)cc2)n1)[C@@H]1C[C@@H]2O[C@]2(C)CCC[C@H](C)[C@H](O)[C@@H](C)C(=O)C(C)(C)[C@@H](O)CC(=O)O1
2. CSc1ccc(-c2cc(-c3nc4ccccc4[nH]3)nc3[nH]c(-c4nc5ccccc5[nH]4)cc(=O)c23)cc1
3. Cc1ccc2[nH]c(=O)c(C(C#N)c3ccccc3)nc2c1 (stereo not given)
4. CNC(=S)NNC1=NCCCCN1

> 50 µM
> 100 µM
> 100 µM
> 100 µM

Field: TGI. Fill in for each record below.
1. O=C1C=CC2(C=C1)CCN=c1c(O)c3c(c(O)c12)=NC=N3
2. O=C1OC2(c3ccc(O)cc3Oc3cc(O)ccc32)c2c1c(-c1ccccc1)c(-c1ccccc1)c(-c1ccccc1)c2-c1ccccc1
3. COc1ccc(F)cc1C(=O)c1cnc(NC2CCN(S(C)(=O)=O)CC2)nc1N
4. O=S1(=O)OCCCOS(=O)(=O)C1Br
5. N#CC1=C(N)Nc2nc3ccccc3n2C1c1ccccc1 (stereo not given)

["> 100 µM", "46.1 µM", "> 14.8 µM", "> 100 µM", "> 100 µM"]

* * *

Record form. Attribute: GI50. Fill in for each entry.
system: PC-3 prostate; test: NCI tumour cell line growth inhibition, 48 h

These solved cases illustrate the format of a correct answer.
| Compound | Measurement Target | GI50 |
| --- | --- | --- |
| Cc1cccc(N=C2c3cc([N+](=O)[O-])ccc3-c3c2cc([N+](=O)[O-])cc3[N+](=O)[O-])c1 | PC-3 prostate | 5020 nM |
| CC[C@H](C)C(=O)O[C@H]1CCC=C2C=C[C@H](C)C(CCC3C[C@@H](O)CC(=O)O3)[C@H]21 (stereo partly drawn) | PC-3 prostate | 1480 nM |

The record that follows has no GI50 shown yet.
Fill in the blank: the reported GI50 of Cc1ccc2sc3c(NCCCNCCO)nc4ccccc4c3c(=O)c2c1 is ____.
1380 nM

* * *

tested on: RPMI-8226 leukemia; assay: NCI tumour cell line growth inhibition, 48 h; in the data active means GI50 below about 0.43 µM; inactive means the rest
# output must be one of active, inactive

Examples with answers:
| Compound | Measurement Target | Assigned Label |
| --- | --- | --- |
| CCCC(=O)NNc1[nH]c(-c2ccc(OC)cc2)cc1C(=O)OCC | RPMI-8226 leukemia | inactive |
| COc1cccc2c1c1nc3cc(C)c(C)cc3nc1n2CCN(C)C | RPMI-8226 leukemia | inactive |
| [N-]=[N+]=CC(=O)OCC(N)C(=O)O (stereo unspecified) | RPMI-8226 leukemia | inactive |

For CC(C)=CCC/C(C)=C/CC/C(=C/COP(=O)(OCc1ccc([N+](=O)[O-])o1)N(C)CCCCCl)C(C)(C)C (stereo unspecified) , what call appears in the results of this test?
inactive

Also, COc1ccc(-c2nc(-c3nc4cc(C)c(C)cc4[nH]3)cc3c2[nH]c2ccccc23)cc1 please.
inactive

Also, COc1ccc(F)cc1C(=O)c1cnc(NC2CCN(S(C)(=O)=O)CC2)nc1N please.
inactive

Also, COc1cc(C(=O)n2nc(N3CCN(C)CC3)c3cc(N)ccc32)cc(OC)c1OC please.
inactive

Also, Cc1cccc(N=C2c3cc([N+](=O)[O-])ccc3-c3c2cc([N+](=O)[O-])cc3[N+](=O)[O-])c1 please.
inactive

Also, CCNc1nc(N2CC(=O)Nc3cc(OC)ccc32)c2ccccc2n1 please.
active

Also, O=C1/C(=C/C(Cl)=C/c2ccccc2)SC(=S)N1CCc1ccc(O)cc1 please.
inactive

Also, CO[C@H]1CC[C@@]2(C)C(=CC[C@H]3[C@@H]4C[C@H](O)C[C@@]4(C)CC[C@@H]32)C1 please.
inactive

* * *

Record form. Attribute: GI50. Fill in for each entry.
test system: TK-10 renal; test: NCI tumour cell line growth inhibition, 48 h

These solved cases illustrate the format of a correct answer.
| Smiles Representation | GI50 |
| --- | --- |
| C=C[C@]1(C)C=C2C(=O)[C@@]3(O)OC(=O)[C@@]4(CCCC(C)(C)[C@H]34)[C@@]2(O)CC1 | 1.49 µM |
| COc1cc(C(=O)n2nc(N3CCN(C)CC3)c3cc(N)ccc32)cc(OC)c1OC | 15.6 µM |
| NC(=O)Oc1cc(OC(N)=O)cc(N(CCCl)CCCl)c1 | 19.3 µM |
| CN1CCN(Cc2ccc(Nc3ncc(Cl)c(Nc4ccccc4S(=O)(=O)N(C)C)n3)cc2)CC1 | 0.0819 µM |
| COC(=O)Nc1nc2ccc(Oc3ccc(NC(=O)Nc4cccc(Cl)c4)cc3)cc2[nH]1 | 4 µM |

The record that follows has no GI50 shown yet.
Fill in the blank: the reported GI50 of C#C[C@@]1(O)[C@@H](CO)O[C@@H](n2cc(F)c3c(N)ncnc32)[C@@H]1O is ____.
0.736 µM

* * *

Record form. Attribute: TGI. Fill in for each entry.
system: SN12C renal; assay: NCI tumour cell line growth inhibition, 48 h

| Molecule | Test Value |
| --- | --- |
| C=CC1(c2ccc(Br)cc2)OCCCO1 | > 100 µM |
| COC(=O)N/N=C(\C)C(CN1CCOCC1)C(c1ccccc1)c1cc2ccccc2oc1=O (stereo unspecified) | > 100 µM |
| CC(Oc1ccc(Cl)cc1Cl)C(=O)NN1C(=O)CSC1c1ccc(Cl)cc1 (stereo unspecified) | 37.8 µM |
| C=C1CC(COc2ccc3ccc(=O)oc3c2)(c2ccccc2)OC1=O (stereo unspecified) | 8.23 µM |
| COc1ccc(/C(Cl)=C(\C=O)c2ccc(Cl)c(Cl)c2)cc1OC | 18.7 µM |

The record that follows has no TGI shown yet.
Fill in the blank: the reported TGI of CC(C)N1CCCOC(c2ccc([N+](=O)[O-])cc2)O1 (stereo unspecified) is ____.
> 100 µM

* * *

tested on: LXFL 529 NSCLC; assay: NCI tumour cell line growth inhibition, 48 h
Record form. Attribute: TGI. Fill in for each entry.

These solved cases illustrate the format of a correct answer.
| Smiles Representation | TGI |
| --- | --- |
| O=C(CC(=O)C(F)(F)F)c1csc2ccccc12 | > 100 µM |
| Cc1ccc(S(=O)(=O)N/N=C(\C(=O)Nc2cccc([N+](=O)[O-])c2)c2nc3ccc([N+](=O)[O-])cc3[nH]c2=O)cc1 | > 100 µM |

The record that follows has no TGI shown yet.
Provide the documented TGI with LXFL 529 NSCLC as the system for Cc1cc(C)n(-c2c(O)ccc(O)c2-n2nc(C)cc2C)n1
> 100 µM

* * *

Record form. Attribute: TGI. Fill in for each entry.
test system: OVCAR-5 ovarian; test: NCI tumour cell line growth inhibition, 48 h
Where a SMILES comes first, the peptide text is derived from it. The star is where a group is joined. OBn = c1ccc(CO*)cc1

| Molecule | TGI |
| --- | --- |
| COC(=O)c1c2c(c(C)[n+]([O-])c1C)C(=O)C(NCc1ccc(F)c(F)c1)=CC2=O | 6.59 µM |
| O=C(O)/C(Cl)=C(\Cl)C(=O)Nc1ccccc1 | > 100 µM |
| CC(Oc1ccc(Cl)cc1Cl)C(=O)NN1C(=O)CSC1c1ccc(Cl)cc1 (centres undefined) | > 100 µM |
| O=C1/C(=C/C(Cl)=C/c2ccccc2)SC(=S)N1CCc1ccc(O)cc1 | 3.91 µM |
| COC(=O)/C=C(\S/C(=C(/c1ccc(OC)cc1)n1cc(C(=O)OC)c(C(=O)OC)n1)c1ccc(OC)cc1)C(=O)OC | 69.7 µM |

Field: TGI. Fill in for each record below.
1. Cc1ccc(S(=O)(=O)n2cc(C(=O)C(=O)Nc3ccncc3)c3ccccc32)cc1
2. Cc1cc(C)n(-c2c(O)ccc(O)c2-n2nc(C)cc2C)n1
3. COc1cc2c3c(c4cc(OC)c(OC)cc4c2cc1OC)[C@H](O)[C@@H]1CCCN1C3
4. CC(C)(O)[C@H]1[C@@H]2OC(=O)[C@H]1[C@]1(O)C[C@H]3OC34C(=O)O[C@H]2[C@@]41C (some centres undefined) (tested in a mixture with another compound)
5. COC1CC2CCC(C)[C@](O)(O2)C(=O)C(=O)N2CCCCC2C(=O)OC(C(C)CC2CCC(O)C(OC)C2)CC(=O)C(C)C=C(C)C(OC(=O)CN(C)C)C(OC)C(=O)C(C)CC(C)/C=C/C=C/C=C\1C (some centres undefined)
6. CC(C)(C)C(=O)Nc1cccc(-c2ccc[nH]2)n1

1: > 100 µM; 2: > 100 µM; 3: 0.732 µM; 4: > 100 µM; 5: 26.4 µM; 6: > 100 µM

Field: TGI. Fill in for each record below.
1. NC(=S)N/N=C(/C(=O)Nc1nc2ccc([N+](=O)[O-])cc2s1)C1C(=O)NC(=S)NC1=O
2. CN(C)CCN1C(=O)c2ccccc2C1(O)c1ccc(Cl)cc1 (centres undefined)
3. C=CC(c1ccccc1)C1(O)c2cccc(O)c2C(=O)c2c(O)cccc21 (centres undefined)
4. COc1cc(-c2nc3ccccc3s2)ccc1OCc1nc2n(n1)S(=O)(=O)c1ccccc1N2C
5. O=c1[nH]n(Cc2ccccc2CCl)c2ccc([N+](=O)[O-])cc12

> 100 µM
> 100 µM
54.2 µM
> 100 µM
> 100 µM

Field: TGI. Fill in for each record below.
1. NC(CCC(=O)OCc1ccccc1)C(=O)NC(CCC(=O)OCc1ccccc1)C(=O)O (centres undefined) (H-Glu(OBn)-Glu(OBn)-OH; configuration not given here)
2. CC1=[N+]([O-])C(C)(C)N(O)C1(C)C
3. COC(=O)[C@]12CSC[C@H]1C[C@H](c1ccc(N(C)C)cc1)N2

> 100 µM
> 100 µM
> 100 µM
